Experimental Target: HDM2 protein (Homo sapiens)
Sequence (Q00987 whole entry): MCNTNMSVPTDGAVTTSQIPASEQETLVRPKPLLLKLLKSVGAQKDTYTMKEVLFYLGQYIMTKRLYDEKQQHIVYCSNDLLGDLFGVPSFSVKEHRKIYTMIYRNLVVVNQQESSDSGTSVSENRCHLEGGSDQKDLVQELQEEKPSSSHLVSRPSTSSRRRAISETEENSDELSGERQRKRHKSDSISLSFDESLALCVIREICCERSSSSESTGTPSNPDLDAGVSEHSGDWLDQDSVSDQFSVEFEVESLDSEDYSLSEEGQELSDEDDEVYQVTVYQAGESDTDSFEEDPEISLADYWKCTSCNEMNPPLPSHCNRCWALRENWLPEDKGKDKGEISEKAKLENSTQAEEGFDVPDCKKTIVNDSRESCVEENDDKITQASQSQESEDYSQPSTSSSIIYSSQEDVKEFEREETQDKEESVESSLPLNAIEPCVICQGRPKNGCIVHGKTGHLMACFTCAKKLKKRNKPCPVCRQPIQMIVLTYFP
Test Name: fluorescence polarization assay for HDM2 inhibitory activity
Assay type: binding
Study Conditions: read-out: FP (IC 50 uM)
API: label(entry) gives criterion met if the entry's IC50 is strictly smaller than 0.01 µM; on equality or larger values it gives criterion not met.

Example results:
>>> class_label("CCC[C@H]1N(C(=O)c2cnccc2C(F)(F)F)CCC[C@@]1(Oc1ccc(C(F)(F)F)cc1)C(=O)N1CCC(C#N)(c2ccccc2CCC(=O)O)CC1")
"criterion not met"
>>> class_label("CCC[C@H]1N(C(=O)c2ncccc2C(F)(F)F)CCC[C@@]1(Oc1csc(C(F)(F)F)c1)C(=O)N1CCC(O)(c2ccccc2OCCCP(=O)(O)O)CC1")
"criterion not met"
>>> class_label("CCC[C@H]1N(C(=O)c2cnccc2C(F)(F)F)CCC[C@@]1(Oc1csc(C(F)(F)F)c1)C(=O)N1CCC(c2nn[nH]n2)(c2ccccc2OC)CC1")
"criterion not met"

### Prompt Is IC50 strictly under 0.01 µM for the entry CCC[C@H]1N(C(=O)c2cnccc2C(F)(F)F)CCC[C@@]1(Oc1csc(C(F)(F)F)c1)C(=O)N1CCC(c2ccccc2CCc2nnn[nH]2)CC1 ?
### Response criterion not met

### Prompt Is IC50 strictly under 0.01 µM for the entry CCC[C@H]1N(C(=O)c2cnccc2C(F)(F)F)CCC[C@@]1(Oc1csc(C(F)(F)F)c1)C(=O)N1CCC(C#N)(c2ccccc2OCCCCC(=O)O)CC1 ?
### Response criterion not met

### Prompt Is IC50 strictly under 0.01 µM for the entry CCC[C@H]1N(C(=O)c2ncccc2C(F)(F)F)CCC[C@@]1(Oc1csc(C(F)(F)F)c1)C(=O)N1CCC(O)(c2ccccc2O[C@@H]2CC[C@](C)(C(=O)NS(C)(=O)=O)C2)CC1 ?
### Response criterion met

### Prompt Is IC50 strictly under 0.01 µM for the entry CCC[C@H]1N(C(=O)c2cnccc2C(F)(F)F)CCC[C@@]1(Oc1csc(C(F)(F)F)c1)C(=O)N1CCC(c2ccccc2OCCCC(=O)NS(=O)(=O)C2CC2)CC1 ?
### Response criterion met
